Data origin: patent US20250262186A1

Target: ERα (Homo sapiens, UniProt P03372)
Construct: made using a breast cancer cell ERα in cell western assay; host or cells: MCF7
Sequence (P03372 whole entry): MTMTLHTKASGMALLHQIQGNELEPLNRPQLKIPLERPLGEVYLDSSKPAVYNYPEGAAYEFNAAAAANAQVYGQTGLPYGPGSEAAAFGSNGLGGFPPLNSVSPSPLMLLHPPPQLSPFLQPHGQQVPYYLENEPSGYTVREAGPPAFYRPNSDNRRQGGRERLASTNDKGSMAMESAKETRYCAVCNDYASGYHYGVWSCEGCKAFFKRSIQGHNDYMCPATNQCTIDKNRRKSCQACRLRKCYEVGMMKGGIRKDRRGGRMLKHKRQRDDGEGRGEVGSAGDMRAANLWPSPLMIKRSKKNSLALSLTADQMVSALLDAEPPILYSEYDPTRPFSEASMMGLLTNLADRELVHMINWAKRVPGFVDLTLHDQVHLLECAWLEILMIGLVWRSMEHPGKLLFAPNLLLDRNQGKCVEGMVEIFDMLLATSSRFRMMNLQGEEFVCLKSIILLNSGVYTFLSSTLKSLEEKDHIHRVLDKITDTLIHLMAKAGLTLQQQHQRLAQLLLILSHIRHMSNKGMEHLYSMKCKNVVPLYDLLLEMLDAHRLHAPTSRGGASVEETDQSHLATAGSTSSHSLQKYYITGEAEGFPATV
Test: Estrogen receptor degradation activity: breast cancer cell ERα in cell western assay in MCF7 cells
Type: cell-based
Details: 0.3 μM, 4 hours, relative to fulvestrant 0.1 μM positive control
ASSAY_READOUT: % Degradation At 0.3 μM (%)

MOLECULE: Cl.O=C(O)c1ccc2c(c1)CCCC(c1ccccc1)=C2c1cc(O[C@@H]2CCN(CCCF)C2)ccc1F
TESTED_ON: ERα (Homo sapiens, UniProt P03372)
ASSAY_READOUT: % Degradation At 0.3 μM
ASSAY_RESULT: 77

A. Cl.O=C(O)c1ccc2c(c1)CCC(c1ccc(Cl)cc1Cl)=C2c1cccc(O[C@@H]2CCN(CCCF)C2)c1
B. Cc1ccc(O[C@@H]2CCN(CCCF)C2)cc1C1=C(c2ccc(Cl)cc2Cl)CCCc2cc(C(=O)O)ccc21
Input line: Field: entry with larger % Degradation At 0.3 μM (options A / B ). Record your answer as the label of the chosen record.
Output line: A

###

Target: ERα (Homo sapiens, UniProt P03372)
Construct: made using a breast cancer cell ERα in cell western assay; host or cells: MCF7
Experiment: Estrogen receptor degradation activity: breast cancer cell ERα in cell western assay in MCF7 cells
Format: cell-based
Details: 0.3 μM, 4 hours, relative to fulvestrant 0.1 μM positive control
ASSAY_READOUT: % Degradation At 0.3 μM (%)

COMPOUND: FCCCN1CC[C@@H](Oc2cccc(C3=C(c4ccc(Cl)cc4Cl)CCCc4ccccc43)c2)C1 [Compound 38]
% Degradation At 0.3 μM (%): 66
--
COMPOUND: Cl.O=C(O)c1ccc2c(c1)CCCC(c1ccc(Cl)cc1Cl)=C2c1cccc(N[C@@H]2CCN(CCCF)C2)c1 [Compound 33]
% Degradation At 0.3 μM (%): 79
--
COMPOUND: Cc1ccc(O[C@@H]2CCN(CCCF)C2)cc1C1=C(c2ccccc2Cl)CCCc2cc(C(=O)O)ccc21 [Compound 23]
% Degradation At 0.3 μM (%): 84
--
COMPOUND: Cc1c(O[C@@H]2CCN(CCCF)C2)cccc1C1=C(c2ccccc2Cl)CCCc2cc(C(=O)O)ccc21 [Compound 16]
% Degradation At 0.3 μM (%): 97
--
COMPOUND: O=C(O)c1ccc2c(c1)CCCC(c1ccc(Cl)cc1Cl)=C2c1cccc(NC2CN(CCCF)C2)c1 [Compound 32]
% Degradation At 0.3 μM (%): 70
--
COMPOUND: CC1CCC(C2=C(c3cccc(OC4CCN(CCCF)C4)c3)c3ccc(C(=O)O)cc3CCC2)CC1 (single isomer, unassigned; isomer 2) [Compound 12]
% Degradation At 0.3 μM (%): 84
--
COMPOUND: Oc1ccc2c(c1)SCCC(c1ccc(Cl)cc1Cl)=C2c1cccc(O[C@@H]2CCN(CCCF)C2)c1 [Compound 41]
% Degradation At 0.3 μM (%): 75
--
COMPOUND: Cl.O=C(O)c1ccc2c(c1)CCCC(C1CCC(F)(F)CC1)=C2c1cccc(O[C@@H]2CCN(CCCF)C2)c1 [Compound 10]
% Degradation At 0.3 μM (%): 85
--
COMPOUND: Cc1c(O[C@@H]2CCN(CCCF)C2)cccc1C1=C(c2ccc(Cl)cc2Cl)CCCc2cc(C(=O)O)ccc21 [Compound 17]
% Degradation At 0.3 μM (%): 87
--
COMPOUND: O=C(O)c1ccc2c(c1)CCCC(c1cccc(F)c1Cl)=C2c1cccc(O[C@@H]2CCN(CCCF)C2)c1 [Compound 9]
% Degradation At 0.3 μM (%): 90
--
COMPOUND: O=C(O)c1ccc2c(c1)CCCC(c1ccc(Cl)cc1Cl)=C2c1cccc(CC2CCN(CCCF)C2)c1 (single isomer, unassigned; isomer 1) [Compound 28]
% Degradation At 0.3 μM (%): 87
--
COMPOUND: O=C(O)c1ccc2c(c1)CCCC(C1CCCC1)=C2c1cccc(O[C@@H]2CCN(CCCF)C2)c1 [Compound 14]
% Degradation At 0.3 μM (%): 77
